target: CRAF^WT (MEK1:CRAF^WT:14-3-3 dimer complex) (Homo sapiens, UniProt P04049); construct: His6 (N); made in house; host or cells: insect cells (baculovirus); assay: TR-FRET kinase inhibition assay (phosphorylation of biotinylated MEK1), CRAF WT dimer complex; type: biochemical; settings: four-parameter fit; 200 μM ATP
Metric name: CRAF^WT nH (Hill slope)
Lab note: jot the number down without any unit.

INSERT INTO assay_data (smiles_string, assayed_system, number) VALUES
  ('Cc1ccc(NC(=O)c2cccc(C(C)(C)C#N)c2)cc1Nc1ccc2ncn(C)c(=O)c2c1', 'CRAF^WT (MEK1:CRAF^WT:14-3-3 dimer complex) (Homo sapiens, UniProt P04049)', '−1.1');

Incoming: Output CRAF^WT nH (Hill slope) of `Cc1ccc2c(Nc3cccc(Cl)c3F)nccc2c1NC(=O)c1csc2c(N)ncnc12`
Outgoing: −1.6

Incoming: Provide measured CRAF^WT nH (Hill slope) value, entry: `OCCn1cc(-c2ccc3c(c2)CC/C3=N\O)c(-c2ccncc2)n1`
Outgoing: −1.0

Incoming: Return reported CRAF^WT nH (Hill slope). Input compound: `CC(C)(C)c1nc(-c2cccc(NS(=O)(=O)c3c(F)cccc3F)c2F)c(-c2ccnc(N)n2)s1`
Outgoing: −0.9

Incoming: Specify reported CRAF^WT nH (Hill slope) for the compound shown: `CNc1ncc2cc(-c3cc(NC(=O)NCCC(C)(C)C)c(F)cc3C)c(C)nc2n1`
Outgoing: −1.4

Incoming: Kindly indicate its recorded CRAF^WT nH (Hill slope). Item: `CCCS(=O)(=O)Nc1ccc(F)c(C(=O)c2c[nH]c3ncc(-c4ccc(Cl)cc4)cc23)c1F`
Outgoing: −0.7

Incoming: Let me know recorded CRAF^WT nH (Hill slope) for `Cc1ccc(C(=O)Nc2ccc(CN3CCN(C)CC3)c(C(F)(F)F)c2)cc1C#Cc1cnc2cccnn12` , thanks.
Outgoing: −0.9

Incoming: Recall and state the measured CRAF^WT nH (Hill slope) for `CNC(=O)c1cc(Oc2ccc(NC(=O)Nc3ccc(Cl)c(C(F)(F)F)c3)cc2)ccn1` .
Outgoing: −1.2

Incoming: Respond only with CRAF^WT nH (Hill slope) recorded for `Cc1ccc(NC(=O)c2ccnc(C(F)(F)F)c2)cc1-c1cc(OCCO)nc(N2CCOCC2)c1`
Outgoing: −1.9

Incoming: Identify measured CRAF^WT nH (Hill slope) associated with `CCN(C)S(=O)(=O)Nc1ccc(F)c(C(=O)c2c[nH]c3ncc(-c4cnc(C5CC5)nc4)cc23)c1F`
Outgoing: −0.4

Incoming: Provide one value: measured CRAF^WT nH (Hill slope) of `O=C(c1c(F)ccc(NS(=O)(=O)N2CC[C@@H](F)C2)c1F)c1c[nH]c2ncc(-c3cnc(C4CC4)nc3)cc12`
Outgoing: −0.5

====

biological target: CRAF^WT (MEK1:CRAF^WT:14-3-3 dimer complex) (Homo sapiens); construct: His6 (N); made in house; host or cells: insect cells (baculovirus); assay: TR-FRET kinase inhibition assay (phosphorylation of biotinylated MEK1), CRAF WT dimer complex; format: biochemical; conditions: 4 nM enzyme, 250 nM MEK1, 200 μM ATP, 40 min preincubation, 30 min reaction; read-out: CRAF^WT IC50
Metric name: pIC50
Scale note: pIC50 = -log10(concentration in M).

INSERT INTO measurements (smiles_string, number) VALUES
  ('Cc1ccc(NC(=O)c2ccnc(C(F)(F)F)c2)cc1-c1cc(OCCO)nc(N2CCOCC2)c1', 8.26);

Next, consider the following compound.
Incoming: Identify measured pIC50 associated with `Cc1ccc2c(Nc3cccc(Cl)c3F)nccc2c1NC(=O)c1csc2c(N)ncnc12`
Outgoing: 8.30

====

target: CRAF^SSDD (Homo sapiens, UniProt P04049, Y340D/Y341D); assay: ATP and MEK titrations by TR-FRET (Michaelis constants, substrate inhibition); conditions: read-out: Ki-ATP, CRAF^SSDD; apparent Ki of substrate inhibition by ATP
Metric name: Ki

Incoming: State, in one line, measured Ki of Nc1ncnc2c1ncn2[C@@H]1O[C@H](COP(=O)(O)OP(=O)(O)OP(=O)(O)O)[C@@H](O)[C@H]1O [ATP]
Outgoing: > 15 mM

====

Recorded CRAF^SSDD nH (Hill slope) for the following molecules
target: CRAF^SSDD (MEK1^SASA:CRAF^SSDD:14-3-3 dimer complex) (Homo sapiens, UniProt P04049, Y340D/Y341D); construct: His6 (N); StrepII (N); made in house; host or cells: insect cells (baculovirus); test: TR-FRET kinase inhibition assay (phosphorylation of biotinylated MEK1), CRAF SSDD dimer complex; format: biochemical; details: four-parameter fit; 200 μM ATP
Answer with a bare number; do not write a unit.

Worked examples follow.
INSERT INTO measurements (molecule, number) VALUES
  ('CCN(C)S(=O)(=O)Nc1ccc(F)c(C(=O)c2c[nH]c3ncc(-c4cnc(C5CC5)nc4)cc23)c1F [PLX7904]', '−0.4'),
  ('Cc1ccc(NC(=O)c2cccc(C(C)(C)C#N)c2)cc1Nc1ccc2ncn(C)c(=O)c2c1 [AZ628]', '−2.6'),
  ('CNC(=O)c1cc(Oc2ccc(NC(=O)Nc3ccc(Cl)c(C(F)(F)F)c3)cc2)ccn1 [Sorafenib]', '−1.3');

Turning to the following molecule.
Incoming: Specify reported CRAF^SSDD nH (Hill slope) for the molecule shown: CCCS(=O)(=O)Nc1ccc(F)c(C(=O)c2c[nH]c3ncc(-c4ccc(Cl)cc4)cc23)c1F [Vemurafenib]
Outgoing: −0.8
